assay: Tissue distribution after acute oral administration; format: in vivo, mouse; conditions: male, C57Bl/6J, mouse, in vivo; 1 mg/kg PO, 1 h post-acute administration; read-out: brain-to-plasma (B/P) ratio
endpoint-name: Kp at 1 h

response.value for O=S(=O)(NC1CCCOc2c1nn(-c1ccccc1Cl)c2-c1ccc(Cl)cc1)c1ccc(Cl)cc1 (stereo not shown) (field: Kp at 1 h) = 0.18

====

assay: Tissue distribution after acute oral administration; assay type: in vivo, mouse; settings: male, C57Bl/6J, mouse, brain; 1 mg/kg PO, 1 h post-acute administration; read-out: brain concentration
endpoint-name: concentration at 1 h (ng/g)
Could you give me the number in ng/g? Just the number is fine.

Per the records, this compound ( Cc1c(C(=O)NN2CCCCC2)nn(-c2ccc(Cl)cc2Cl)c1-c1ccc(Cl)cc1 [rimonabant] ) has concentration at 1 h equal to 128

====

Recorded IC50 values for a group of compounds are listed next.
biological target: human CB1R (Homo sapiens, UniProt P21554); construct: purchased PerkinElmer RBHCB1M400UA; assay: Radioligand competition displacement binding, [3H]CP-55,940, membranes with human CB1R; settings: human CB1R; read-out: CB1R hIC50
Sequence (P21554 whole entry): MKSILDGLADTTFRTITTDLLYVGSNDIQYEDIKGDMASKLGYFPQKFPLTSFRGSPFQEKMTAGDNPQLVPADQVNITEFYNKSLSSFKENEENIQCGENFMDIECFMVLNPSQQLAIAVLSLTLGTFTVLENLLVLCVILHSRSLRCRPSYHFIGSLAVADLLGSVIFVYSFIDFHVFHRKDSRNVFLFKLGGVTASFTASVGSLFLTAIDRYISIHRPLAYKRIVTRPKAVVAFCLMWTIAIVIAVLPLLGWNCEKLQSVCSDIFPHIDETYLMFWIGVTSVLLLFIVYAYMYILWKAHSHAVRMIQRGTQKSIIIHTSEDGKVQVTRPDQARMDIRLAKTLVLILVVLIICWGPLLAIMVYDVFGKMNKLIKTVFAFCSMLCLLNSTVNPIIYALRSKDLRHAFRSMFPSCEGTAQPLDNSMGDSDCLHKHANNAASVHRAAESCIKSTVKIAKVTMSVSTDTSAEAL
Supply the numeric figure in nM, leaving out any unit text.

Sample records with IC50:
- compound: "CS(=O)(=O)NC1CCCOc2c1nn(-c1ccccc1Cl)c2-c1ccc(Cl)cc1 (stereo not shown) [BNS809]"
  IC50, nM: 8.5
- compound: "O=C(NC1CCCOc2c1nn(-c1ccccc1Cl)c2-c1ccc(Cl)cc1)C1CCN(S(=O)(=O)c2ccc(Cl)cc2)CC1 (stereo not shown) [BNS825]"
  IC50, nM: 3.8
- compound: "CS(=O)(=O)N1CCC(C(=O)NC2CCCOc3c2nn(-c2ccccc2Cl)c3-c2ccc(Cl)cc2)CC1 (stereo not shown) [BNS815]"
  IC50, nM: 10.1

Okay, next one:
Sure, the documented IC50 for Cc1ccc(S(=O)(=O)NC2CCCOc3c2nn(-c2ccccc2Cl)c3-c2ccc(Cl)cc2)cc1 (stereo not shown) [BNS807] is 1.5

====

molecular target: P-gp (MDR1) (Homo sapiens, UniProt P08183); experiment: Bidirectional permeability in MDR1-MDCKII cells with and without GF120918; settings: dog, MDCK-MDR1
Sequence (P08183 whole entry): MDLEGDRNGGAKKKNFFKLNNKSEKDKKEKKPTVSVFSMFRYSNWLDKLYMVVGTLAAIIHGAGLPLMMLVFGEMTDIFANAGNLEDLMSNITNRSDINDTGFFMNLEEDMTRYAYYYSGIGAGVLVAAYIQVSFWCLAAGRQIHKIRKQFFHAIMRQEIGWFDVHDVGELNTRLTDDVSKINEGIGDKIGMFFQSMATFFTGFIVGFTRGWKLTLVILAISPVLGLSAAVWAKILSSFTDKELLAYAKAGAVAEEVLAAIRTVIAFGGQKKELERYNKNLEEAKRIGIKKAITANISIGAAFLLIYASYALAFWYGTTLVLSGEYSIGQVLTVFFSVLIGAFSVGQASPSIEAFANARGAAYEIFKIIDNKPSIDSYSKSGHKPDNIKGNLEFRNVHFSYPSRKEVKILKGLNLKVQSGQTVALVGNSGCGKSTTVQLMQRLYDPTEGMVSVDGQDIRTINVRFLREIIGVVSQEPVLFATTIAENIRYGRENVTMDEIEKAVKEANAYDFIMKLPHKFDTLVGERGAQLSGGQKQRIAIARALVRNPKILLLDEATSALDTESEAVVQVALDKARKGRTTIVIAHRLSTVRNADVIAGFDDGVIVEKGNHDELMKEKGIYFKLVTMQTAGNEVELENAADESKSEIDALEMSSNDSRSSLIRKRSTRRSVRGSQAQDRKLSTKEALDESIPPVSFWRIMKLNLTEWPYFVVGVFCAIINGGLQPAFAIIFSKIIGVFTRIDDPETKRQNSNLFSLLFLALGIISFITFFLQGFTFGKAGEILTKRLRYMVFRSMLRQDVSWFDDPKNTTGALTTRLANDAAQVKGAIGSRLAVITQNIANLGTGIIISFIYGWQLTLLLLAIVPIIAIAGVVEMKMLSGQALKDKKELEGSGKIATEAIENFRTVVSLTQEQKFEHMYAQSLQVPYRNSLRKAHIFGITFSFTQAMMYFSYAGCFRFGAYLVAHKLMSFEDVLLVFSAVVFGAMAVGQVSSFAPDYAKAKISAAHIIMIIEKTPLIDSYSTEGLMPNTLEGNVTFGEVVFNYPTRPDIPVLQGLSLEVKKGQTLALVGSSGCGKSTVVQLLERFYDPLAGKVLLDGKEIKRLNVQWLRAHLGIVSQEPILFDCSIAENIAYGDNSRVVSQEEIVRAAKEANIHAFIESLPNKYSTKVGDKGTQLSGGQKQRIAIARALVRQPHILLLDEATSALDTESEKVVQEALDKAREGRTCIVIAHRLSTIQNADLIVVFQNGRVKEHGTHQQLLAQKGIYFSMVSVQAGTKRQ
Catalogue of compounds with associated Papp A→B at 2.5 h
Your answer is read as ×10⁻⁶ cm/s, so omit the unit and give the number.

Worked cases, Papp A→B at 2.5 h given:
- compound: "CC(C)(C)NCC(O)COc1cccc2c1CC(O)C(O)C2 (centres unmarked) [Nadolol, reference compound]"
  result-value: 0.42
- compound: "COCCc1ccc(OCC(O)CNC(C)C)cc1 (centres unmarked) [Metoprolol, reference compound]"
  result-value: 28.7
- compound: "CCOC(=O)N1CCC(C(=O)NC2CCCOc3c2nn(-c2ccccc2Cl)c3-c2ccc(Cl)cc2)CC1 (centres unmarked) [BNS816]"
  result-value: 6.99

Lab note: measured Papp A→B at 2.5 h of O=S(=O)(NC1CCCOc2c1nn(-c1ccccc1Cl)c2-c1ccc(Cl)cc1)c1ccc(Cl)cc1 (centres unmarked) [BNS808] was 0.26

// Papp A→B at 2.5 h lookup, compound = CS(=O)(=O)N1CCC(C(=O)NC2CCCOc3c2nn(-c2ccccc2Cl)c3-c2ccc(Cl)cc2)CC1 (centres unmarked) [BNS815] , result: 10.1
